Just for reference, PubChem BioAssay is where these values come from.

Biological target: Streptavidin (Streptomyces avidinii)
Assay: compounds binding control protein streptavidin – biophysical, small-molecule microarray, 635/667 nm fluorescence, artefact control for SMM compound annotation, primary screen (AID 1147);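 further: signal reflects streptavidin binding to arrayed compounds as a control protein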
Settings: higher = more signal
readout.label: composite z-score

Report composite z-score, nothing else, for this compound: C#CCNS(=O)(=O)N(C)C
0.0573

Report composite z-score, nothing else, for this compound: CN1C(=O)C2C=CC(C(O)c3cccc4ccccc34)N(NC(=O)OC(C)(C)C)C2C1=O (centres undefined)
1.51

Report composite z-score, nothing else, for this compound: C=CCN1C(=O)[C@@]2(O[C@@H](CCn3cc([C@H](O)c4ccccc4)nn3)[C@H]([Si](C)(C)c3ccc(OC)cc3)[C@H]2C)c2cc(NC(=O)c3ccc(OC)cc3)ccc21
0.429

Report composite z-score, nothing else, for this compound: CC(C)CNC(=O)[C@@]1(c2ccc([N+](=O)[O-])cc2)CC(=O)N(C(C)C)[C@@H]1c1ccc(CO)cc1
-1.19
